- Test system: PPARa:RXRa (NR concentration 270 nM, RXRa partner concentration 90 nM)
- Test Description: PBM binding z-score (relative to random genomic background probes); higher = stronger binding; sequences stand for … in GC…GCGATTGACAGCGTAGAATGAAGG
Answer criterion not met if PBM binding z-score is under 2, and criterion met if it is 2 or more.

1) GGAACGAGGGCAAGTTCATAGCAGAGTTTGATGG | criterion met
2) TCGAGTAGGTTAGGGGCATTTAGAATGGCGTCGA | criterion not met
3) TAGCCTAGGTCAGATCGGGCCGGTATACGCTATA | criterion not met
4) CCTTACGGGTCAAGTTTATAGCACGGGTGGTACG | criterion met
5) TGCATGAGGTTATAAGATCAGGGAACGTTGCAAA | criterion met
6) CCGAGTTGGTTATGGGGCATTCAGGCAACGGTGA | criterion not met
7) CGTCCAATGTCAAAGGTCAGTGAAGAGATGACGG | criterion met
8) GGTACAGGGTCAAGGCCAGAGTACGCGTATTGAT | criterion met
9) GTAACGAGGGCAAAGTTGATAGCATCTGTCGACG | criterion met
10) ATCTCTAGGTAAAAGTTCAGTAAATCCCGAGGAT | criterion met
11) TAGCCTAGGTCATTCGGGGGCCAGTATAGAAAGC | criterion met
12) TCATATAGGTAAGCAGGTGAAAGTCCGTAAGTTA | criterion not met

---

- Test system: RARb homodimer (NR concentration 270 nM)
- Test Description: PBM binding z-score (relative to random genomic background probes); higher = stronger binding; sequences stand for … in GC…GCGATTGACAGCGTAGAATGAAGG
Class 1.0: PBM binding z-score at least 1. Class 0.0: PBM binding z-score below 1.

1) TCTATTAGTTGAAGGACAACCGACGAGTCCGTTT | 0.0
2) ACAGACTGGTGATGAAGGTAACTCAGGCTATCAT | 0.0
3) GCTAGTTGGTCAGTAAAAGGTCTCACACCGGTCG | 1.0
4) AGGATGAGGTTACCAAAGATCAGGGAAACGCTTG | 1.0
5) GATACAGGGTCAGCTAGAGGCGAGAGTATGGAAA | 1.0
6) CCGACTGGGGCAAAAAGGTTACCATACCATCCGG | 1.0
7) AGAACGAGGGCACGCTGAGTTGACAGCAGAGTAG | 1.0
8) CCTTACGGGTCACGGACAGGTTATAGCATTTGGA | 1.0
9) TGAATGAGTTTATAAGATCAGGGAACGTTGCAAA | 0.0
10) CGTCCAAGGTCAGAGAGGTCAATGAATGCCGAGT | 1.0
11) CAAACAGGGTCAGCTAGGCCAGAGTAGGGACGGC | 1.0
12) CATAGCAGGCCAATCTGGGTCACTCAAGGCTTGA | 1.0
13) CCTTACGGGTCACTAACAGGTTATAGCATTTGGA | 1.0
14) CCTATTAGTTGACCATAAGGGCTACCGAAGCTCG | 1.0
15) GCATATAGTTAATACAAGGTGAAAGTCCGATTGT | 0.0
16) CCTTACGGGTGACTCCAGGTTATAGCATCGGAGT | 0.0
17) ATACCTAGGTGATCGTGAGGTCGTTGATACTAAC | 1.0
18) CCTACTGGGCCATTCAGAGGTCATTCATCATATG | 1.0
19) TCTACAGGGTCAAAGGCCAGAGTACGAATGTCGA | 1.0
20) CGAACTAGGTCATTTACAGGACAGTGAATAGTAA | 1.0
21) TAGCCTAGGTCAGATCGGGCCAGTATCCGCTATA | 1.0
22) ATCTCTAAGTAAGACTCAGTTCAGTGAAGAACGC | 0.0
23) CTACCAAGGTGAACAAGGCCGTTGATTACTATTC | 0.0

---

- Tested on: RARb:RXRa (NR concentration 270 nM, RXRa partner concentration 90 nM)
- Test Description: PBM binding z-score (relative to random genomic background probes); higher = stronger binding; sequences stand for … in GC…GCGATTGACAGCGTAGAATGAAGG
Consider the following sequences and their measured PBM binding z-score readings.
Measured Quantity: PBM binding z-score

1) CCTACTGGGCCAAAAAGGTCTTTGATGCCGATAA | 0.422
2) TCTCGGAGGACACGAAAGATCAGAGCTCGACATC | 1.17
3) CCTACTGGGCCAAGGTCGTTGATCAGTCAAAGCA | 1.09
4) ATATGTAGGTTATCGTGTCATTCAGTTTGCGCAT | 1.32
5) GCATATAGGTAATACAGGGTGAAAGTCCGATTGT | 0.281
6) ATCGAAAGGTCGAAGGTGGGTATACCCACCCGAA | 3.51
7) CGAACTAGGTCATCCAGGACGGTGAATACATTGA | 3.78
8) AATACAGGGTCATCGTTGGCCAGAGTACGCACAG | 4.37
9) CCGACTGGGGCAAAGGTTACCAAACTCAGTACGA | 2.52
10) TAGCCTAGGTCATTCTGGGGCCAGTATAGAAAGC | 3.67
11) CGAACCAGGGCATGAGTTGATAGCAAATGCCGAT | 1.02
12) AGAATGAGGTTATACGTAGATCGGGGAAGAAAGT | 1.58
13) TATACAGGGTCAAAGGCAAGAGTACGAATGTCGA | 4.43
14) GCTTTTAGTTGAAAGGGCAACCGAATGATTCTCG | 2.16
15) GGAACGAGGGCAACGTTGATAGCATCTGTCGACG | 2.32
16) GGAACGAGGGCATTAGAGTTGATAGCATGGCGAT | 1.79
17) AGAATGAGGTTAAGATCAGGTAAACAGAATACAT | 1.98
18) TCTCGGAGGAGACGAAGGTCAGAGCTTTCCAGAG | 2.37
19) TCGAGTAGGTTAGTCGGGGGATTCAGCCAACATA | 0.779
20) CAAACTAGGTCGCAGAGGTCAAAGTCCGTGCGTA | 4.5
21) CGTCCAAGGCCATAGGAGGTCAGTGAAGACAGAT | 2.9

---

- System: PPARg DBDmut IVT, anti-PPARg (DBD mutation: PPARg1 K132A/R137A, NR concentration 270 nM)
- Test Description: PBM binding z-score (relative to random genomic background probes); higher = stronger binding; sequences stand for … in GC…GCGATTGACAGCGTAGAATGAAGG
Measured Quantity: PBM binding z-score

1) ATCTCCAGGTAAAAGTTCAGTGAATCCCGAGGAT | 1.01
2) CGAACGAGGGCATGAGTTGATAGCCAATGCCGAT | -0.251
3) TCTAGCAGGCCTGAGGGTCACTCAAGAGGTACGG | -1.13
4) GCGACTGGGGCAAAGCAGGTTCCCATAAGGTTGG | -1.28

---

- Tested on: PXR:RXRa (NR concentration 270 nM, RXRa partner concentration 90 nM)
- Test Description: PBM binding z-score (relative to random genomic background probes); higher = stronger binding; sequences stand for … in GC…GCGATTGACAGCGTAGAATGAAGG
Measured Quantity: PBM binding z-score

1. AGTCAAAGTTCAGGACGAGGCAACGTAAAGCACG | 1.94
2. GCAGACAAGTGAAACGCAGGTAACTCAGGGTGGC | -0.683
3. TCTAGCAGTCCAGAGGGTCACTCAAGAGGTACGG | 1.67
4. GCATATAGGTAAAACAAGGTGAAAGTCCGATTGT | 0.851
5. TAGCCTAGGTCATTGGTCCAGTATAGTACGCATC | 1.76
6. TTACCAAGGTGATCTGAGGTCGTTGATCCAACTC | 5.06
7. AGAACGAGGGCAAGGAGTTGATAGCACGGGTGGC | 0.742
8. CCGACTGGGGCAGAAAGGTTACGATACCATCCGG | 1.39

---

- Test system: VDR:RXRa (NR concentration 270 nM, RXRa partner concentration 90 nM)
- Test Description: PBM binding z-score (relative to random genomic background probes); higher = stronger binding; sequences stand for … in GC…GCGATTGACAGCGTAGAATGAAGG
Measured Quantity: PBM binding z-score

1) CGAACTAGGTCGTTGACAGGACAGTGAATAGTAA | 0.71
2) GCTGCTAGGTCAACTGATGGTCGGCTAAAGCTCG | 1.4
3) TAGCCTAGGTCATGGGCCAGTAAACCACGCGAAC | 2.07
4) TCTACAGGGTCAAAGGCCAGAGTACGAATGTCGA | 4.56
5) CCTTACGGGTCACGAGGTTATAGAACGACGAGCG | 5.31
6) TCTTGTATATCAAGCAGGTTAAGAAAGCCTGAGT | 0.659
7) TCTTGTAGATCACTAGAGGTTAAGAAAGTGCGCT | 2.06
8) CCTAGCAGGCGAATCTGGGTCACTCAAGGCTTGA | -0.0504
9) CCAGACACGTGAGAAGGTAACTCAGCCTCGATTA | -0.39
10) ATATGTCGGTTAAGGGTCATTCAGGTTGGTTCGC | 5.48
11) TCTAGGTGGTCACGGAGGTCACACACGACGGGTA | 6.02
12) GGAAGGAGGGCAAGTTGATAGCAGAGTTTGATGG | 0.934
13) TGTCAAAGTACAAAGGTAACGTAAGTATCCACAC | 0.725
14) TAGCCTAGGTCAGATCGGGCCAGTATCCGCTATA | 0.43

Reference source: the supplement of paper PMC6555819
